- Test system: TSGH-8301 (Urinary Bladder Carcinoma)
- test protocol: Cell viability analysis, bladder cancer TSGH-8301
- Format: cell-based, human
- test conditions: Homo sapiens, 72 h, read-out: The results of antibiotic drug inhibiting cancer cell lines (cell viability analysis), TSGH-8301, TSGH-8301; repeated experiment
Recorded viability at 10 µM by entry
Be sure to follow the number with its unit.

Example entries begin here.
molecule	value
CC[C@H]1OC(=O)[C@H](C)[C@@H](O[C@H]2C[C@@](C)(OC)[C@@H](O)[C@H](C)O2)[C@H](C)[C@@H](O[C@@H]2O[C@H](C)C[C@H](N(C)C)[C@H]2O)[C@](C)(O)C[C@@H](C)CN(C)[C@H](C)[C@@H](O)[C@]1(C)O [Azithromycin Dihydrate]	119%
N=C(N)c1ccc(OCCCCCOc2ccc(C(=N)N)cc2)cc1 [Pentamidine]	82.7%
O=c1[nH]c(=O)n([C@H]2C[C@H](O)[C@@H](CO)O2)cc1C(F)(F)F [Trifluridine (Viroptic), Trifluridine]	86.4%
CO[C@H]1/C=C/O[C@@]2(C)Oc3c(C)c(O)c4c(O)c(c(/C=N/N5CCN(C6CCCC6)CC5)c(O)c4c3C2=O)NC(=O)/C(C)=C\C=C\[C@H](C)[C@H](O)[C@@H](C)[C@@H](O)[C@@H](C)[C@H](OC(C)=O)[C@@H]1C [Rifapentine (Priftin), Rifapentine]	94.7%

Continue with the molecule presented below.
Ask: Which viability at 10 µM reading was recorded for the molecule CCCOc1ccc2nc(NC(=O)OC)[nH]c2c1 [Oxibendazole] ?
Result: 48.6%

---

- Tested on: HI650 (Lung Adenocarcinoma)
- test protocol: Cell viability analysis, lung cancer HI650
- Type: cell-based, human
- test conditions: drug 10 μM, 72 hours, WST-1, OD450 nm
outcome measure: cell viability (survival rate), H1650
Give only the figure.

Example entries begin here.
molecule	cell viability (survival rate), H1650
CCCCCCCCCCCCCCCC[N+](C)(C)C.[Br-] [Cetrimonium Bromide]	54.6
C[C@@H]1[C@H](O)[C@@H](C)/C=C/C=C/CC/C=C/C=C/C=C/C=C/C(O[C@H]2O[C@H](C)[C@@H](O)[C@H](N)[C@@H]2O)CC2O[C@](O)(CC(O)C(O)CCC(O)CC(O)CC(O)CC(=O)O[C@H]1C)CC(O)C2C(=O)O (stereo partly drawn) [Nystatin (Mycostatin), Nystatin]	65.4
CN(C)CCCN1c2ccccc2CCc2ccc(Cl)cc21.Cl [Clomipramine HCl (Anafranil)]	47.5
O=C([O-])C(O)[C@H](O)[C@@H](O)[C@H](O)[C@H](O)CO.O=C([O-])C(O)[C@H](O)[C@@H](O)[C@H](O)[C@H](O)CO.[Ca+2] (stereo partly drawn) [Calcium Gluceptate]	54.25
CC1(C)S[C@@H]2[C@H](NC(=O)[C@H](N)c3ccc(O)cc3)C(=O)N2[C@H]1C(=O)[O-].[Na+] [Amoxicillin sodium (Amox), Amoxicillin sodium]	43.3

Continue with the molecule presented below.
Ask: Which cell viability (survival rate), H1650 reading was recorded for the molecule CN(C/C=C/C#CC(C)(C)C)Cc1cccc2ccccc12.Cl [Terbinafine HCl (Lamisil)] ?
Result: 40.6

---

- Test system: HL-60 (Acute Promyelocytic Leukemia)
- test protocol: Cell viability analysis, leukemia HL-60
- Format: cell-based, human
- test conditions: Homo sapiens, HL-60, 72 h, drug 10 μM, 72 hours, WST-1, OD450 nm; read-out: cell viability (survival rate), HL-60
outcome measure: viability at 10 µM (%)
Please give a number only; it is taken to be in %.

Example entries begin here.
molecule	measurement target	value
NC[C@H]1O[C@H](O[C@H]2[C@H](O)[C@@H](O[C@H]3O[C@H](CO)[C@@H](O)[C@H](N)[C@H]3O)[C@H](N)C[C@@H]2N)[C@H](N)[C@@H](O)[C@@H]1O	HL-60 (Acute Promyelocytic Leukemia)	96.8
C[C@@H](O)[C@H]1C(=O)N2C(C(=O)O)=C(S[C@@H]3CN[C@H](C(=O)N(C)C)C3)[C@H](C)[C@H]12	HL-60 (Acute Promyelocytic Leukemia)	102

Ask: Which viability at 10 µM reading was recorded for the molecule CC1(C)O[C@@H]2C[C@H]3[C@@H]4C[C@H](F)C5=CC(=O)C=C[C@]5(C)[C@@]4(F)[C@@H](O)C[C@]3(C)[C@]2(C(=O)CO)O1 [Fluocinolone acetonide (Flucort-N), Fluocinolone acetonide] ?
Result: 116

Ask: Which viability at 10 µM reading was recorded for the molecule NCC[C@H](O)C(=O)N[C@@H]1C[C@H](N)[C@@H](O[C@H]2O[C@H](CN)[C@@H](O)[C@H](O)[C@H]2O)[C@H](O)[C@H]1O[C@H]1O[C@H](CO)[C@@H](O)[C@H](N)[C@H]1O [Amikacin hydrate] ?
Result: 108

Ask: Which viability at 10 µM reading was recorded for the molecule CCCCCCCCCCCCCCCCCCCCCCO ?
Result: 116

---

Recorded cell viability (survival rate), LoVo by entry
- System: LoVo (Colorectal Adenocarcinoma)
- test protocol: Cell viability analysis, colon cancer LoVo
- Type: cell-based, human
- test conditions: drug 10 μM, 72 hours, WST-1, OD450 nm
Give only the figure.

Example entries begin here.
molecule	measurement target	cell viability (survival rate), LoVo
CN(C/C=C/C#CC(C)(C)C)Cc1cccc2ccccc12.Cl [Terbinafine HCl (Lamisil)]	LoVo (Colorectal Adenocarcinoma)	71.4
CCCCCCCCCCCCCCCC[N+](C)(C)C.[Br-] [Cetrimonium Bromide]	LoVo (Colorectal Adenocarcinoma)	55.4

Continue with the molecule presented below.
Ask: Which cell viability (survival rate), LoVo reading was recorded for the molecule C[C@@H]1[C@H](O)[C@@H](C)/C=C/C=C/CC/C=C/C=C/C=C/C=C/C(O[C@H]2O[C@H](C)[C@@H](O)[C@H](N)[C@@H]2O)CC2O[C@](O)(CC(O)C(O)CCC(O)CC(O)CC(O)CC(=O)O[C@H]1C)CC(O)C2C(=O)O (stereo partly drawn) ?
Result: 70.9

---

- System: MCF7 (Mammary Gland, Adenocarcinoma)
- test protocol: Cell viability analysis, breast cancer MCF7
- Format: cell-based, human
- test conditions: drug 10 μM, 72 hours, WST-1, OD450 nm
Recorded cell viability (survival rate), MCF7 by entry
Give only the figure.

Example entries begin here.
molecule	outcome measure	value
CN(C/C=C/C#CC(C)(C)C)Cc1cccc2ccccc12.Cl [Terbinafine HCl (Lamisil)]	cell viability (survival rate), MCF7	67.7
CN(C)CCCN1c2ccccc2CCc2ccc(Cl)cc21.Cl [Clomipramine HCl (Anafranil)]	cell viability (survival rate), MCF7	75.7
O=C([O-])C(O)[C@H](O)[C@@H](O)[C@H](O)[C@H](O)CO.O=C([O-])C(O)[C@H](O)[C@@H](O)[C@H](O)[C@H](O)CO.[Ca+2] (some centres unmarked) [Calcium Gluceptate]	cell viability (survival rate), MCF7	34.24
CC1(C)S[C@@H]2[C@H](NC(=O)[C@H](N)c3ccc(O)cc3)C(=O)N2[C@H]1C(=O)[O-].[Na+] [Amoxicillin sodium (Amox), Amoxicillin sodium]	cell viability (survival rate), MCF7	60.4

Ask: Which cell viability (survival rate), MCF7 reading was recorded for the molecule C[C@@H]1[C@H](O)[C@@H](C)/C=C/C=C/CC/C=C/C=C/C=C/C=C/C(O[C@H]2O[C@H](C)[C@@H](O)[C@H](N)[C@@H]2O)CC2O[C@](O)(CC(O)C(O)CCC(O)CC(O)CC(O)CC(=O)O[C@H]1C)CC(O)C2C(=O)O (some centres unmarked) [Nystatin (Mycostatin), Nystatin] ?
Result: 46.4

---

- Tested on: A375 (Amelanotic Melanoma)
- test protocol: Cell viability analysis, skin cancer A375
- Assay type: cell-based, human
- test conditions: Homo sapiens, A-375, 72 h, read-out: cell viability (survival rate), A375, drug 10 μM, 72 hours, WST-1, OD450 nm
Recorded viability at 10 µM by entry
Please give a number only; it is taken to be in %.

Example entries begin here.
compound	value
COc1ccc(O)cc1	63.8
Cc1cn([C@@H]2C[C@@H](O)[C@H](CO)O2)c(=O)[nH]c1=O [Telbivudine (Sebivo, Tyzeka), Telbivudine]	57.5
Clc1ccc(C(Cn2ccnc2)OCc2csc3c(Cl)cccc23)c(Cl)c1 (stereo not shown) [Sertaconazole nitrate]	52

Ask: Which viability at 10 µM reading was recorded for the compound C[C@@H]1CCC[C@H](C)N1NC(=O)c1ccc(Cl)c(S(N)(=O)=O)c1 [Clopamide] ?
Result: 63.1

Ask: Which viability at 10 µM reading was recorded for the compound CC1(C)S[C@@H]2[C@H](NC(=O)[C@H](N)c3ccccc3)C(=O)N2[C@H]1C(=O)O [Ampicillin sodium] ?
Result: 68.9

---

Recorded viability at 10 µM by entry
- Test system: A375 (Amelanotic Melanoma)
- test protocol: Cell viability analysis, skin cancer A375
- Format: cell-based, human
- test conditions: Homo sapiens, A-375, 72 h, read-out: cell viability (survival rate), A375, drug 10 μM, 72 hours, WST-1, OD450 nm
Structures can show the parent of a compound that is named as a salt.
Please give a number only; it is taken to be in %.

Example entries begin here.
molecule	viability at 10 µM, %
COc1cc(NC(C)CCCN)c2ncccc2c1 (centres unmarked) [Primaquine Diphosphate]	44.6
CCCCCCCCCC(=O)N[C@@H](Cc1c[nH]c2ccccc12)C(=O)N[C@H](CC(N)=O)C(=O)N[C@@H](CC(=O)O)C(=O)N[C@@H]1C(=O)NCC(=O)N[C@@H](CCCN)C(=O)N[C@@H](CC(=O)O)C(=O)N[C@H](C)C(=O)N[C@@H](CC(=O)O)C(=O)NCC(=O)N[C@H](CO)C(=O)N[C@@H]([C@H](C)CC(=O)O)C(=O)N[C@@H](CC(=O)c2ccccc2N)C(=O)O[C@@H]1C [Daptomycin]	81.2
O=C(N[C@H](CO)[C@H](O)c1ccc([N+](=O)[O-])cc1)C(Cl)Cl [Chloramphenicol (Chloromycetin), Chloramphenicol]	114
CCOC(=O)n1ccn(C)c1=S [Carbimazole]	65.1

Continue with the molecule presented below.
Ask: API: value(readout=viability at 10 µM, system=A375 (Amelanotic Melanoma)) for record C=C[C@]1(C)C[C@@H](OC(=O)CSC(C)(C)CNC(=O)[C@H](N)C(C)C)[C@]2(C)[C@H](C)CC[C@]3(CCC(=O)[C@H]32)[C@@H](C)[C@@H]1O [Valnemulin HCl]
Result: 57.1
